Listed below: log2 fold change of degron read counts values for each entry.
# study system: T1, CRBN, Q96SW2;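 note: pooled lentiviral library of zinc finger degron-EGFP fusions in mCherry-positive Jurkat cells, FACS-sorted after compound exposure, with degron abundance counted by next-generation sequencing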
# T1 chain: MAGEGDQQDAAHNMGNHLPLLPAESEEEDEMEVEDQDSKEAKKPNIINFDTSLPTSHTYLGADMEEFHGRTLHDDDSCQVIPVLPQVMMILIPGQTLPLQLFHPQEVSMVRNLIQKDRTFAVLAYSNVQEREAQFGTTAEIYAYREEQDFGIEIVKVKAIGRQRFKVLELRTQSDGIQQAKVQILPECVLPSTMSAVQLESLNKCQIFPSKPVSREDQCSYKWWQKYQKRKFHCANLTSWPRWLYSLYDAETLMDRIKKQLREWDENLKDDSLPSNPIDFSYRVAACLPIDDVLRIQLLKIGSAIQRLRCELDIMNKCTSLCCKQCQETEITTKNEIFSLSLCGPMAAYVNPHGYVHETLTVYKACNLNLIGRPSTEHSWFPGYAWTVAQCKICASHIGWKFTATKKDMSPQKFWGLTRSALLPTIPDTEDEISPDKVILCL
# assay protocol: log2 fold change of degron read counts, EGFP-low vs EGFP+ sorted cells (limma voom), compound-induced degradation; higher = more compound-induced degradation of the degron-EGFP fusion; degrons are variants of IKZF1/3 zinc finger 2; compound dose not given here
# condition context: Jurkat; 18 h; compound: compound 22 (5-morpholino-thalidomide)
The full ranking holds about 8,300 sequences; the median of “log2 fold change of degron read counts, EGFP-low vs EGFP+ sorted cells (limma voom), compound-induced degradation” is about -1.1, and the highest 2% start at about 3.2. Shown is part of a subset that was picked to be rich in the highest values.
Lab note: record the figure alone, no unit after it.

FCCSVCGHLFTQKGNLLRHIKL [46F_47C_49S_50V_52G_53H_54L_55F_67L_, Q9UKT9] :: -2.38
FMCDQCGAMFTQKGNLLRHIKL [46F_47M_49D_50Q_52G_53A_54M_55F_67L_, Q9UKT9] :: -3.27
FGCNQCGHHFTQKGNLLRHIKL [46F_47G_49N_50Q_52G_53H_54H_55F_67L_, Q9UKT9] :: -2.34

If you can, please state the reported log2 fold change of degron read counts value of LKCEICGFVCTQKGNLLRHIKL [46L_47K_49E_50I_52G_53F_54V_55C_67L_, Q9UKT9] .
-2.04

If you can, please state the reported log2 fold change of degron read counts value of FHCDQCGACFTQKGNLLRHIKL [46F_47H_49D_50Q_52G_53A_54C_55F_67L_, Q9UKT9] .
-1.96

If you can, please state the reported log2 fold change of degron read counts value of FDCNQCGHNFTQKGNLLRHIKL [46F_47D_49N_50Q_52G_53H_54N_55F_67L_, Q9UKT9] .
-2.61

If you can, please state the reported log2 fold change of degron read counts value of FWCNQCGAEFTQKGNLLRHIKL [46F_47W_49N_50Q_52G_53A_54E_55F_67L_, Q9UKT9] .
-2.56

If you can, please state the reported log2 fold change of degron read counts value of FVCEICGHLFTQKGNLLRHIKL [46F_47V_49E_50I_52G_53H_54L_55F_67L_, Q9UKT9] .
-3.09
